Molecular target: rat EP1 receptor (Rattus norvegicus (Rat), UniProt P70597)
Sequence (P70597 whole entry): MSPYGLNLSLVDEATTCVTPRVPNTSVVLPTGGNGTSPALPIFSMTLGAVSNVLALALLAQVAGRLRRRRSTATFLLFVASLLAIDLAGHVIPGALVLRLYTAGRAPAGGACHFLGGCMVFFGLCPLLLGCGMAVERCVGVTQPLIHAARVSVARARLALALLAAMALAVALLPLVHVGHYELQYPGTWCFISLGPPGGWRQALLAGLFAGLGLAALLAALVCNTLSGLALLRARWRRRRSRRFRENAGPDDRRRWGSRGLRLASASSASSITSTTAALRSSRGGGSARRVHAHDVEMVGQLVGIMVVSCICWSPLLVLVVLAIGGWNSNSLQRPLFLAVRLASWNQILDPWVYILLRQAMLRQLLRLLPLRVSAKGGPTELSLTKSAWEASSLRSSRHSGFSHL
Test: Test for confirmation of EP1 receptor antagonism: inhibition of the prostaglandin E2-induced increase in intracellular calcium concentration in rat EP1 receptor-expressing COS-1 cells
Format: cell-based
Details: Method B: Calcium kit II Fluo 4, FDSS 7000; prostaglandin E2 10 nM; rat EP1 receptor-expressing COS-1 cells
measurement_name: pIC50
In plain terms, pIC50 is the concentration in mol/L turned into minus its base-10 logarithm.

## Task Missing value: pIC50, rat EP1 receptor (Rattus norvegicus (Rat), UniProt P70597), entry COc1ccc2c(c1)cc(-c1cc(F)ccc1F)n2Cc1cccc(C(=O)O)n1 . Fill in?
## Result 7.60

## Task Input COc1ccc2c(c1)cc(-c1cccc(F)c1)n2Cc1ccc(C(=O)O)o1
## Result 7.47

## Task Input COc1cc2cc(-c3cccc(F)c3)n(Cc3cccc(C(=O)O)n3)c2cc1Cl
## Result 7.49

## Task Input COc1ccc2c(c1)cc(-c1ccccc1F)n2Cc1cccc(C(=O)O)c1
## Result 7.49

----------
Target: rat EP1 receptor (Rattus norvegicus (Rat))
Assay: Test for confirmation of EP1 receptor antagonism: inhibition of the prostaglandin E2-induced increase in intracellular calcium concentration in rat EP1 receptor-expressing COS-1 cells
Assay type: cell-based
Conditions: Method B: Calcium kit II Fluo 4, FDSS 7000; prostaglandin E2 10 nM; rat EP1 receptor-expressing COS-1 cells
Provide the recorded IC50 for the entries that follow.
Only the number, expressed in nM, is required.

## Task Field request: IC50 | item: COc1ccc2c(c1)cc(-c1cccc(F)c1)n2Cc1cccc(C(=O)O)c1
## Result 17

## Task Input COc1cc2cc(-c3cccnc3)n(Cc3cccc(C(=O)O)n3)c2cc1F
## Result 58

## Task Input COc1cc2cc(-c3ccccc3F)n(Cc3cccc(C(=O)O)n3)c2cc1F
## Result 28

## Task Input COc1cc2cc(-c3cccc(F)c3)n(Cc3cccc(C(=O)O)n3)c2cc1F
## Result 26

## Task Input COc1cc2cc(-c3ccoc3)n(Cc3ccc(C(=O)O)o3)c2cc1Cl
## Result 22

## Task Input COc1cc2cc(-c3ccoc3)n(Cc3cccc(C(=O)O)n3)c2cc1Cl
## Result 27

## Task Input COc1ccc2c(c1)cc(-c1ccccc1)n2Cc1csc(C(=O)O)n1
## Result 55

## Task Input COc1cc2cc(-c3ccccc3)n(Cc3ccc(C(=O)O)o3)c2cc1Cl
## Result 17

## Task Input COc1cc2cc(-c3ccsc3)n(Cc3cccc(C(=O)O)n3)c2cc1Cl
## Result 54

## Task Input COc1cc2cc(-c3cccnc3)n(Cc3cccc(C(=O)O)n3)c2cc1Cl
## Result 28

## Task Input COc1ccc2c(c1)cc(-c1ccc(F)cc1)n2Cc1cccc(C(=O)O)c1
## Result 36

## Task Input COc1cc2cc(-c3ccccc3)n(Cc3ccc(C(=O)O)o3)c2cc1C
## Result 35

## Task Input COc1cc2cc(-c3ccc(F)cc3)n(Cc3cccc(C(=O)O)n3)c2cc1F
## Result 33

## Task Input COc1cc2cc(-c3ccsc3)n(Cc3cccc(C(=O)O)n3)c2cc1C
## Result 37

## Task Input COc1ccc2c(c1)cc(-c1cccnc1)n2Cc1cccc(C(=O)O)c1
## Result 38

## Task Input COc1cc2cc(-c3ccccc3)n(Cc3cccc(C(=O)O)n3)c2cc1C
## Result 39

## Task Input CCC(C)c1cc2cc(OC)c(Cl)cc2n1Cc1cccc(C(=O)O)n1 (stereo not drawn)
## Result 51

## Task Input COc1cc2cc(-c3ccccc3)n(Cc3cccc(C(=O)O)n3)c2cc1Cl
## Result 67

----------
Target: UniProt P70597
Assay: Test for confirmation of EP1 receptor antagonism: inhibition of the prostaglandin E2-induced increase in intracellular calcium concentration in rat EP1 receptor-expressing COS-1 cells
Type: cell-based
Details: Method A: Fluo-4 NW Calcium Assay Kit, FlexStation; prostaglandin E2 10 nM; rat EP1 receptor-expressing COS-1 cells
measurement_name: pIC50
In plain terms, pIC50 is the concentration in mol/L turned into minus its base-10 logarithm.

## Task Field request: pIC50 | item: COc1ccc2c(c1)cc(-c1ccsc1)n2Cc1cccc(C(=O)O)c1
## Result 7.46

## Task Input COc1ccc2c(c1)cc(-c1ccccc1)n2Cc1cccc(C(=O)O)c1F
## Result 7.72

## Task Input COc1ccc2c(c1)cc(-c1ccccc1)n2Cc1cccc(C(=O)O)n1
## Result 7.89

## Task Input Cc1ccc2c(c1)cc(-c1ccccc1)n2Cc1cccc(C(=O)O)c1
## Result 7.05

## Task Input COc1cc2cc(-c3ccccc3)n(Cc3cccc(C(=O)O)c3)c2cc1F
## Result 7.89

## Task Input COc1ccc2c(c1)cc(-c1ccsc1)n2Cc1cccc(C(=O)O)n1
## Result 7.64

## Task Input COc1ccc2c(c1)cc(-c1ccoc1)n2Cc1cccc(C(=O)O)c1
## Result 7.96

## Task Input COc1ccc2c(c1)cc(-c1ccccc1)n2Cc1cccc(C(=O)O)c1
## Result 7.68

## Task Input COc1ccc2c(c1)cc(C(C)C)n2Cc1cccc(C(=O)O)c1
## Result 7.66
